B1: TAF7L (parent)
chain: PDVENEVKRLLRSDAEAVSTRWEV

- Variants of: B1
- ASSAY DETAILS: protein stability index of a GFP-peptide fusion (GPS, HEK-293T) (PSI 1-6); higher = more stable;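 also: lentivirally expressed fusions sorted by FACS into six bins by GFP to DsRed ratio, PSI derived from sequencing read proportions per bin multiplied by bin number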
- MEASUREMENT CONDITIONS: c terminus: a fixed tail appended
Short version: protein stability index at least 3 is Condition met, less is Condition not met.

>  <QUERY SEQUENCE>
PDVENEKKRLLRSDAEAVSTRWEV [V7K]

>  <ASSIGNED CATEGORY>
Condition met

$$$$

Check this variant for protein stability index at or above 3: PDVENEVKRLLRSDAEAVSTMWEV [R21M]
Condition met

Check this variant for protein stability index at or above 3: PTVENEVKRLLRSDAEAVSTRWEV [D2T]
Condition not met

Check this variant for protein stability index at or above 3: PDVENEVHRLLRSDAEAVSTRWEV [K8H]
Condition met

Check this variant for protein stability index at or above 3: PDVENEVPRLLRSDAEAVSTRWEV [K8P]
Condition met

Check this variant for protein stability index at or above 3: PDVENEVKRLLRSDAEAVSTRWER [V24R]
Condition met

Check this variant for protein stability index at or above 3: PDVENETKRLLRSDAEAVSTRWEV [V7T]
Condition met

Check this variant for protein stability index at or above 3: KDVENEVKRLLRSDAEAVSTRWEV [P1K]
Condition met

Check this variant for protein stability index at or above 3: PDVENEVKRLLRSDAEAVSTRWGV [E23G]
Condition met

Check this variant for protein stability index at or above 3: PDVENEVKRLLRSDAEAVSTRREV [W22R]
Condition met

Check this variant for protein stability index at or above 3: PDVENEVKRLLRSDAEAVSYRWEV [T20Y]
Condition not met

Check this variant for protein stability index at or above 3: PDVENEVKRLLRSDAESVSTRWEV [A17S]
Condition met
